Exercise: for every item that follows, state its recorded % Blocking.
Biological target: T1, human chemokine (C-C motif) receptor 8 (CCR8) (human, UniProt P51685 1-355)
T1 construct: also called hCCR8
T1 sequence (P51685 whole entry): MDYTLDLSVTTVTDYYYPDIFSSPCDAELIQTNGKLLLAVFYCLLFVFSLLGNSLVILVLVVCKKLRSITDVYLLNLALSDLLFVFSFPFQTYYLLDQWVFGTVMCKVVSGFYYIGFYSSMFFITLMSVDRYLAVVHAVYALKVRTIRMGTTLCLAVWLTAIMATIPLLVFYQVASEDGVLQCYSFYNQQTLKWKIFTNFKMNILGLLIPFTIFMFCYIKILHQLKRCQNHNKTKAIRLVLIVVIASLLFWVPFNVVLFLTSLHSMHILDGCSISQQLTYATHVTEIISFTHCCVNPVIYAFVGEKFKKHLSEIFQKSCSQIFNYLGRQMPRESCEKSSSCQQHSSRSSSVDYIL
Test: flow cytometry blocking, human PBMC, CD3+ gate; competitor PE-AB5
Form entry: enter the amount, then its unit.

Request: // lookup % Blocking for anti-CCR8 monoclonal antibody AB10 (antibody, V domains shown, Hybridoma monoclonal; also called antibody 10; clone 10) VH: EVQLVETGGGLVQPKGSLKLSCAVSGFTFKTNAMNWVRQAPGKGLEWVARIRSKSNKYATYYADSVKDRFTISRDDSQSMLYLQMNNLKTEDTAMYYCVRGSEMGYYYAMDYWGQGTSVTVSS VL: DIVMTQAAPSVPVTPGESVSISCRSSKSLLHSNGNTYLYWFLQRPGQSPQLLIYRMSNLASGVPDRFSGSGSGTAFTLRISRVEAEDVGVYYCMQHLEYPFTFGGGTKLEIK
Response: -5.55%

Request: Likewise for anti-CCR8 monoclonal antibody AB8 (antibody, V domains shown, Hybridoma monoclonal; also called antibody 8; clone 8) VH: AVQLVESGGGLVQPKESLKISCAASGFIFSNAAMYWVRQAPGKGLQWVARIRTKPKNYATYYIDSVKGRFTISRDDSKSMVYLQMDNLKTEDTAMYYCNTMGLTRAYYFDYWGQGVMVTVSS VL: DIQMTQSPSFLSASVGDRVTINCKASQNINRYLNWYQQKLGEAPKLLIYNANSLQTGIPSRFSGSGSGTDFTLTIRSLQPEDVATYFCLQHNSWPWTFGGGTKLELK ?
Response: -7.96%

Request: Further, for anti-CCR8 monoclonal antibody AB6 (antibody, V domains shown, also called antibody 6; clone 6) VH: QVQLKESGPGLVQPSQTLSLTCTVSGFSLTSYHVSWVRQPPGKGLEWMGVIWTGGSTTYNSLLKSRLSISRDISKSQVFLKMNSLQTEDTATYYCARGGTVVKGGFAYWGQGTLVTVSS VL: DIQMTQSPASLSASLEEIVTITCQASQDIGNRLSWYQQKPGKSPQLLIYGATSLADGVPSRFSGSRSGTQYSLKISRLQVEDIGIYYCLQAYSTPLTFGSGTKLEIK ?
Response: 7.24%

Request: Ok, now anti-CCR8 monoclonal antibody AB5 (antibody, V domains shown, Hybridoma monoclonal; also called antibody 5; clone 5) VH: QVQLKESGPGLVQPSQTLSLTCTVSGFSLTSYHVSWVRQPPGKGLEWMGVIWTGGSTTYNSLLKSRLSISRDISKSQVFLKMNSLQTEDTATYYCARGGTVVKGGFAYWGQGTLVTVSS VL: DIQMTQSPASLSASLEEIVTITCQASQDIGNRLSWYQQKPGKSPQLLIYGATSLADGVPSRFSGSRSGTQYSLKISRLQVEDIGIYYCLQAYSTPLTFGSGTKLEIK
Response: 84.9%

Request: Same again, this time with anti-CCR8 monoclonal antibody AB7 (antibody, V domains shown, Hybridoma monoclonal; also called antibody 7; clone 7) VH: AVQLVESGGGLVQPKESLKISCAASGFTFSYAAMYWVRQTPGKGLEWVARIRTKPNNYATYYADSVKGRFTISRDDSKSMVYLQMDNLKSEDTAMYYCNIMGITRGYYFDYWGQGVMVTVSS VL: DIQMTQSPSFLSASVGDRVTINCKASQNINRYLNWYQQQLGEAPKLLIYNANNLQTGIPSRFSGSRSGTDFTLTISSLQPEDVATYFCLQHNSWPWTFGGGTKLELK
Response: -4.7%

Request: Cool, now anti-CCR8 monoclonal antibody AB13 (antibody, V domains shown, Hybridoma monoclonal; also called antibody 13; clone 13) VH: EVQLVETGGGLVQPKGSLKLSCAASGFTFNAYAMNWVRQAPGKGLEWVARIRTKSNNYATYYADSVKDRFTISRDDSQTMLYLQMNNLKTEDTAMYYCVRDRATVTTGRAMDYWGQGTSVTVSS VL: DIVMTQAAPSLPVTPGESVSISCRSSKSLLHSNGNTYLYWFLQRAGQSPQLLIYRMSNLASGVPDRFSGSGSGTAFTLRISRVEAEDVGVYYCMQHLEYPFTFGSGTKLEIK
Response: -1.21%

Request: What do we get for anti-CCR8 monoclonal antibody AB11 (antibody, V domains shown, Hybridoma monoclonal; also called antibody 11; clone 11) VH: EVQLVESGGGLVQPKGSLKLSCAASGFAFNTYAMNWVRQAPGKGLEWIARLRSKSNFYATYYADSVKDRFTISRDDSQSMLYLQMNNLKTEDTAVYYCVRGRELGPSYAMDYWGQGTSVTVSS VL: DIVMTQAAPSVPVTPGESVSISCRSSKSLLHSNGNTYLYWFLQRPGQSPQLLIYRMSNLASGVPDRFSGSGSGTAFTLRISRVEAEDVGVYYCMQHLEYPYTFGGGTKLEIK ?
Response: -2.41%
